Attribution: patent US12239645B2

method notes: Multiple ascending dose (MAD) study: multiple-dose pharmacokinetics
Assay type: in vivo, human
test context: human, plasma, oral, 120 mg, 120 mg BID × 14 Days, Day 14
assay metric: Tmax (h)
Give the value in h but do not write h after it.

Request: Supply measured Tmax of CC(=O)c1nn(CC(=O)N2[C@H](C(=O)Nc3nc(Br)ccc3C)C[C@@]3(C)C[C@@H]23)c2ccc(-c3cnc(C)nc3)cc12 in your reply.
Result: 2.5

====

method notes: Multiple ascending dose (MAD) study: multiple-dose pharmacokinetics
Type: in vivo, human
test context: human, plasma, oral, 80 mg, 80 mg BID, Day 6, 12 hr post-dose (132 h); read-out: Pre-dose (trough) plasma concentration, Mean
assay metric: concentration at 132 h (ng/mL)
Give the value in ng/mL but do not write ng/mL after it.

Request: Supply measured concentration at 132 h of CC(=O)c1nn(CC(=O)N2[C@H](C(=O)Nc3nc(Br)ccc3C)C[C@@]3(C)C[C@@H]23)c2ccc(-c3cnc(C)nc3)cc12 in your reply.
Result: 52.1

====

method notes: Multiple ascending dose (MAD) study: multiple-dose pharmacokinetics
Format: in vivo, human
test context: human, plasma, oral, 80 mg BID, Day 13, 0 hr post-dose (288 h); read-out: Pre-dose (trough) plasma concentration, Mean
assay metric: concentration at 288 h (ng/mL)
Give the value in ng/mL but do not write ng/mL after it.

Request: Supply measured concentration at 288 h of CC(=O)c1nn(CC(=O)N2[C@H](C(=O)Nc3nc(Br)ccc3C)C[C@@]3(C)C[C@@H]23)c2ccc(-c3cnc(C)nc3)cc12 [Compound 1] in your reply.
Result: 63.3

====

method notes: Phase I single ascending dose (SAD) study: plasma and urine pharmacokinetics
Format: in vivo, human
test context: human, plasma, oral, 120 mg, 120 mg single dose, fasted, plasma; read-out: Cmax, Median
assay metric: Cmax
Answer shape: numeric part, then the unit.

Request: Supply measured Cmax of CC(=O)c1nn(CC(=O)N2[C@H](C(=O)Nc3nc(Br)ccc3C)C[C@@]3(C)C[C@@H]23)c2ccc(-c3cnc(C)nc3)cc12 [Compound 1] in your reply.
Result: 260 ng/mL

====

method notes: Phase I single ascending dose (SAD) study: plasma and urine pharmacokinetics
Assay type: in vivo, human
test context: human, plasma, oral, 80 mg, 80 mg single dose, fasted, plasma; read-out: tmax, GM
assay metric: Tmax (h)
Give the value in h but do not write h after it.

Request: Supply measured Tmax of CC(=O)c1nn(CC(=O)N2[C@H](C(=O)Nc3nc(Br)ccc3C)C[C@@]3(C)C[C@@H]23)c2ccc(-c3cnc(C)nc3)cc12 in your reply.
Result: 1.85

====

method notes: Multiple ascending dose (MAD) study: multiple-dose pharmacokinetics
Assay type: in vivo, human
test context: human, plasma, oral, 200 mg, 200 mg BID × 14 Days, Day 7; read-out: Cmax, Mean
assay metric: Cmax (ng/mL)
Give the value in ng/mL but do not write ng/mL after it.

Request: Supply measured Cmax of CC(=O)c1nn(CC(=O)N2[C@H](C(=O)Nc3nc(Br)ccc3C)C[C@@]3(C)C[C@@H]23)c2ccc(-c3cnc(C)nc3)cc12 in your reply.
Result: 1870

====

method notes: MAD study, two additional single-dose cohorts: pharmacokinetics
Assay type: in vivo, human
test context: human, plasma, oral; 240 mg single dose, fasted
assay metric: Tmax (h)
Give the value in h but do not write h after it.

Request: Supply measured Tmax of CC(=O)c1nn(CC(=O)N2[C@H](C(=O)Nc3nc(Br)ccc3C)C[C@@]3(C)C[C@@H]23)c2ccc(-c3cnc(C)nc3)cc12 in your reply.
Result: 2.67

====

method notes: Multiple ascending dose (MAD) study: multiple-dose pharmacokinetics
Format: in vivo, human
test context: human, plasma, oral, 40 mg BID, Day 7, 0 hr post-dose (144 h); read-out: Pre-dose (trough) plasma concentration, Mean
assay metric: concentration at 144 h (ng/mL)
Give the value in ng/mL but do not write ng/mL after it.

Request: Supply measured concentration at 144 h of CC(=O)c1nn(CC(=O)N2[C@H](C(=O)Nc3nc(Br)ccc3C)C[C@@]3(C)C[C@@H]23)c2ccc(-c3cnc(C)nc3)cc12 in your reply.
Result: 24.3

====

method notes: MAD study, two additional single-dose cohorts: pharmacokinetics
Assay type: in vivo, human
test context: human, plasma, oral; 240 mg single dose, fasted
assay metric: Cmax (ng/mL)
Give the value in ng/mL but do not write ng/mL after it.

Request: Supply measured Cmax of CC(=O)c1nn(CC(=O)N2[C@H](C(=O)Nc3nc(Br)ccc3C)C[C@@]3(C)C[C@@H]23)c2ccc(-c3cnc(C)nc3)cc12 [Compound 1] in your reply.
Result: 594

====

method notes: Phase I single ascending dose (SAD) study: plasma and urine pharmacokinetics
Assay type: in vivo, human
test context: human, plasma, oral, 40 mg, 40 mg single dose, fasted, plasma; read-out: Vz/F, GM
assay metric: Vd/F (L)
Give the value in L but do not write L after it.

Request: Supply measured Vd/F of CC(=O)c1nn(CC(=O)N2[C@H](C(=O)Nc3nc(Br)ccc3C)C[C@@]3(C)C[C@@H]23)c2ccc(-c3cnc(C)nc3)cc12 in your reply.
Result: 1470

====

method notes: Phase I single ascending dose (SAD) study: plasma and urine pharmacokinetics
Assay type: in vivo, human
test context: human, urine, oral, 80 mg, 80 mg single dose, fasted, urine; read-out: CLr, Mean (converted)
assay metric: CL renal (mL/min)
Give the value in mL/min but do not write mL/min after it.

Request: Supply measured CL renal of CC(=O)c1nn(CC(=O)N2[C@H](C(=O)Nc3nc(Br)ccc3C)C[C@@]3(C)C[C@@H]23)c2ccc(-c3cnc(C)nc3)cc12 [Compound 1] in your reply.
Result: 3.5

====

method notes: Multiple ascending dose (MAD) study: multiple-dose pharmacokinetics
Type: in vivo, human
test context: human, plasma, oral, 200 mg, 200 mg BID × 14 Days, Day 7; read-out: AUC(0-12), Mean
assay metric: AUC(0-t) (ng·h/mL)
Give the value in ng·h/mL but do not write ng·h/mL after it.

Request: Supply measured AUC(0-t) of CC(=O)c1nn(CC(=O)N2[C@H](C(=O)Nc3nc(Br)ccc3C)C[C@@]3(C)C[C@@H]23)c2ccc(-c3cnc(C)nc3)cc12 in your reply.
Result: 9350

====

method notes: Phase I single ascending dose (SAD) study: plasma and urine pharmacokinetics
Format: in vivo, human
test context: human, plasma, oral, 120 mg, 120 mg single dose, fasted, plasma; read-out: tmax, Mean
assay metric: Tmax (h)
Give the value in h but do not write h after it.

Request: Supply measured Tmax of CC(=O)c1nn(CC(=O)N2[C@H](C(=O)Nc3nc(Br)ccc3C)C[C@@]3(C)C[C@@H]23)c2ccc(-c3cnc(C)nc3)cc12 in your reply.
Result: 2.58

====

method notes: Phase I single ascending dose (SAD) study: plasma and urine pharmacokinetics
Format: in vivo, human
test context: human, plasma, oral, 80 mg, 80 mg single dose, fasted, plasma; read-out: Cmax, Median
assay metric: Cmax (ng/mL)
Give the value in ng/mL but do not write ng/mL after it.

Request: Supply measured Cmax of CC(=O)c1nn(CC(=O)N2[C@H](C(=O)Nc3nc(Br)ccc3C)C[C@@]3(C)C[C@@H]23)c2ccc(-c3cnc(C)nc3)cc12 [Compound 1] in your reply.
Result: 247

====

method notes: Multiple ascending dose (MAD) study: multiple-dose pharmacokinetics
Type: in vivo, human
test context: human, plasma, oral, 80 mg, 80 mg BID × 14 Days, Day 7; read-out: AUC(0-12), Mean
assay metric: AUC(0-t) (ng·h/mL)
Give the value in ng·h/mL but do not write ng·h/mL after it.

Request: Supply measured AUC(0-t) of CC(=O)c1nn(CC(=O)N2[C@H](C(=O)Nc3nc(Br)ccc3C)C[C@@]3(C)C[C@@H]23)c2ccc(-c3cnc(C)nc3)cc12 in your reply.
Result: 1990

====

method notes: Multiple ascending dose (MAD) study: multiple-dose pharmacokinetics
Format: in vivo, human
test context: human, plasma, oral, 40 mg BID, all 12 hr (evening) troughs; read-out: Mean C(12), steady-state trough
assay metric: concentration at 12 h (ng/mL)
Give the value in ng/mL but do not write ng/mL after it.

Request: Supply measured concentration at 12 h of CC(=O)c1nn(CC(=O)N2[C@H](C(=O)Nc3nc(Br)ccc3C)C[C@@]3(C)C[C@@H]23)c2ccc(-c3cnc(C)nc3)cc12 in your reply.
Result: 15.6

====

method notes: Multiple ascending dose (MAD) study: multiple-dose pharmacokinetics
Assay type: in vivo, human
test context: human, plasma, oral, 40 mg BID, Day 13, 0 hr post-dose (288 h); read-out: Pre-dose (trough) plasma concentration, Mean
assay metric: concentration at 288 h (ng/mL)
Give the value in ng/mL but do not write ng/mL after it.

Request: Supply measured concentration at 288 h of CC(=O)c1nn(CC(=O)N2[C@H](C(=O)Nc3nc(Br)ccc3C)C[C@@]3(C)C[C@@H]23)c2ccc(-c3cnc(C)nc3)cc12 [Compound 1] in your reply.
Result: 23.5
